# experimental system: UniProt:P00860
# Sequence (P00860 whole entry): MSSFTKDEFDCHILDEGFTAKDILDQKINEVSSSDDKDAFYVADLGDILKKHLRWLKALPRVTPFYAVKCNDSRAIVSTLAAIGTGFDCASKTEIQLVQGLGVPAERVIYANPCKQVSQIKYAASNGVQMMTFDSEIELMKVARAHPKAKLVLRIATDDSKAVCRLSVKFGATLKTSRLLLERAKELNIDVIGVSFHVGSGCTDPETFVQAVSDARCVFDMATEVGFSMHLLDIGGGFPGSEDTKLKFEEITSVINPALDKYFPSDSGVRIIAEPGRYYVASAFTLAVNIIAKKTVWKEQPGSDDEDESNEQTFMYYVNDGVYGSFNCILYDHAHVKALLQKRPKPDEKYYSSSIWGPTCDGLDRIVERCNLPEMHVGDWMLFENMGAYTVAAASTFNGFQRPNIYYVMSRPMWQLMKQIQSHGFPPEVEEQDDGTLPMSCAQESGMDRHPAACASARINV
# assay protocol: Inhibition of TPA induced ODC(Ornithine decarboxylase) activity in mice epidermis at 34 nmol in the presence of TPA
# Type: functional
property label: ODC activity ((nM of CO2) hr-1 (mg of protein)-1)

COC(=O)c1ccc(/C=C(\C)c2ccc3c(c2)C(C)(C)CCO3)cc1 : 0.95
CC(/C=C/C=C(\C)c1ccc2c(c1)C(C)(C)CCS2)=C\C(=O)OCCN1C(=O)c2ccccc2C1=O : 0.97
COC(=O)c1ccc(/C=C(\C)c2ccc3c(c2)C(C)(C)CO3)cc1 : 1.5
C/C(=C\c1ccc(C#N)cc1)c1ccc2c(c1)C(C)(C)CCO2 : 1.77
C/C(=C\c1ccc(CO)cc1)c1ccc2c(c1)C(C)(C)CCO2 : 1.7

I: CC(/C=C/C=C(\C)c1ccc2c(c1)C(C)(C)CCO2)=C\C(=O)O
II: C/C(=C\c1ccc(C=O)cc1)c1ccc2c(c1)C(C)(C)CCO2
Exam item: Could you please tell me which of these two has the higher ODC activity ((nM of CO2) hr-1 (mg of protein)-1): I or II ? Give the label under which the chosen entry appears.
Marked response: II

----------
# experimental system: Ornithine decarboxylase (Mus musculus)
# assay protocol: Inhibition of TPA induced ODC(Ornithine decarboxylase) activity in mice epidermis at 34 nmol in the presence of TPA compared to control value
# Assay type: functional
property label: inhibition (%)

COC(=O)c1ccc(/C=C(\C)c2ccc3c(c2)C(C)(C)CO3)cc1 : 72
C/C(=C\c1ccc(CO)cc1)c1ccc2c(c1)C(C)(C)CCO2 : 68
C/C(=C\c1ccc(C#N)cc1)c1ccc2c(c1)C(C)(C)CCO2 : 0
CC(/C=C/C=C(\C)c1ccc2c(c1)C(C)(C)CCS2)=C\C(=O)OCCN1C(=O)c2ccccc2C1=O : 42
C/C(=C\c1ccc(C=O)cc1)c1ccc2c(c1)C(C)(C)CCO2 : 34

I: COC(=O)c1ccc(/C=C(\C)c2ccc3c(c2)C(C)(C)CCO3)cc1
II: CC(/C=C/C=C(\C)c1ccc2c(c1)C(C)(C)CCO2)=C\C(=O)O
Exam item: Could you please tell me which of these two has the higher inhibition: I or II ? Give the label under which the chosen entry appears.
Marked response: II
(II: 74%, I: 43%)

Cited source: ChEMBL document CHEMBL1123815
